Cited source for all entries: patent US20250034275A1

Molecular target: T1, human Trop-2-His (human, UniProt P09758 27-274, limits assumed)
T1 construct: by analogy with the macaque construct it is probably the extracellular domain with a His tag; also called Trop-2-His protein
T1 sequence: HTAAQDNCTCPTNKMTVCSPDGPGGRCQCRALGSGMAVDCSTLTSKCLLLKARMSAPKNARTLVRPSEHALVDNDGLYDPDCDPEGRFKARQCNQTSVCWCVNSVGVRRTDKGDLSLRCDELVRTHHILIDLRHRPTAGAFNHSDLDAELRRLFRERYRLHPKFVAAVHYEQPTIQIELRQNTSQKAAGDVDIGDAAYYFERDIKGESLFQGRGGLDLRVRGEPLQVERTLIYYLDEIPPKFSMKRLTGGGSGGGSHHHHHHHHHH
Experiment: ELISA, plate-coated human Trop-2-His
// reported EC50 for each item listed
Just the number please, in nM, no unit attached.

Check out these entries, answers already filled in.
ch-Ab2 (antibody, human IgG1, kappa, V domains shown, also called chimeric antibody of Ab2) VH: EVQLVESGPGLVAPSQSLSITCTVSGFSLTYYGIDWVRQPPGKGLEWLGVIWGSGNTKYNSALMSRLSISKDNSKSQVFLRMNSLQSDDTAIYYCARFYEGFAYWGQGTLVTVSA VL: AIVLTQSPSSMYASLGERVTITCKASQDINSYLSWFQQKPGKSPKTLIYRANRLVDGVPSRFSGSGSGQDYSLTISSLEYEDMGIYYCLQYDEFPLTFGVGTKLELKR | 0.085
hz-Ab35-2.2 (antibody, human IgG1, kappa, V domains shown, Humanized antibody) VH: QVQLVQSGAEVKKPGASVKVSCKASGYTFTSSDINWVRQRPGQGLEWMGWIYPRDGSKKYNEKFKGRVTMTVDTSTSTVYMELSSLRSEDTAVYYCARRFATVVSNYGLDPWGQGTLVTVSS VL: EIVLTQSPATLSLSPGERATLSCSASSSVNYIYWYQRKPGQAPRLLIYDTSNLASGIPARFSGSGSGTDYTLTISSLEPEDFAVYYCQQWNSYPLTFGQGTKVEIKR | 0.054
hz-Ab2-2.4 (antibody, human IgG1, kappa, V domains shown, Humanized antibody) VH: QVQLQESGPGLVKPSETLSLTCTVSGFSLTYYGIDWIRQPPGKGLEWIGVIWGSGNTKYNSALKSRVTISKDNSKSQVYLKLSSVTAADTAVYYCARFYEGFAYWGQGTLVTVSS VL: DIQMTQSPSSLSASVGDRVTITCRASQDINSYLSWFQQKPGKAPKTLIYRANRLVEGVPSRFSGSGSGQDFTLTISSLQPEDFATYYCLQYDEYPLTFGQGTKVEIKR | 0.1

Tell me the measured EC50 of hz-Ab35-2.1 (antibody, human IgG1, kappa, V domains shown, Humanized antibody) VH: QVQLVQSGAEVKKPGASVKVSCKASGYTFTSSDINWVRQRPGQGLEWMGWIYPRDGSKKYAQKFQGRVTMTVDTSTSTVYMELSSLRSEDTAVYYCATRFATVVSNYGLDPWGQGTLVTVSS VL: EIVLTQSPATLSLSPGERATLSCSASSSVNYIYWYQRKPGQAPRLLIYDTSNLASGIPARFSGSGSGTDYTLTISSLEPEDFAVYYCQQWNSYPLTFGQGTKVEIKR , please. 0.055

Quick check: EC50 of hz-Ab21-1.1 (antibody, human IgG1, kappa, V domains shown, Humanized antibody) VH: EVQLVESGGGLVKPGGSLRLSCAASGFTLRNYGVHWVRQAPGKGLEWVGVIWSSGTTDYAAPVKGRFTISKDNSKNTLYLQMNSLKTEDTAVYYCTRDGDYDYYTMDYWGQGTLVTVSS VL: EIVLTQSPATLSLSPGERATLSCRASKSVSTSAYSYIHWYQQKPGQAPRLLIYLTSNLESGIPARFSGSGSGTDFTLTISSLEPEDFAVYYCQHSRELPYTFGQGTKVEIKR ? 0.162
